biological target: Glucocorticoid receptor (Homo sapiens) (UniProt P04150); experiment: GR-GFP Redistribution (AID 450); settings: U2OS GR-GFP nuclear translocation, laser cytometry, 2 h
Sequence (P04150 whole entry, looked up): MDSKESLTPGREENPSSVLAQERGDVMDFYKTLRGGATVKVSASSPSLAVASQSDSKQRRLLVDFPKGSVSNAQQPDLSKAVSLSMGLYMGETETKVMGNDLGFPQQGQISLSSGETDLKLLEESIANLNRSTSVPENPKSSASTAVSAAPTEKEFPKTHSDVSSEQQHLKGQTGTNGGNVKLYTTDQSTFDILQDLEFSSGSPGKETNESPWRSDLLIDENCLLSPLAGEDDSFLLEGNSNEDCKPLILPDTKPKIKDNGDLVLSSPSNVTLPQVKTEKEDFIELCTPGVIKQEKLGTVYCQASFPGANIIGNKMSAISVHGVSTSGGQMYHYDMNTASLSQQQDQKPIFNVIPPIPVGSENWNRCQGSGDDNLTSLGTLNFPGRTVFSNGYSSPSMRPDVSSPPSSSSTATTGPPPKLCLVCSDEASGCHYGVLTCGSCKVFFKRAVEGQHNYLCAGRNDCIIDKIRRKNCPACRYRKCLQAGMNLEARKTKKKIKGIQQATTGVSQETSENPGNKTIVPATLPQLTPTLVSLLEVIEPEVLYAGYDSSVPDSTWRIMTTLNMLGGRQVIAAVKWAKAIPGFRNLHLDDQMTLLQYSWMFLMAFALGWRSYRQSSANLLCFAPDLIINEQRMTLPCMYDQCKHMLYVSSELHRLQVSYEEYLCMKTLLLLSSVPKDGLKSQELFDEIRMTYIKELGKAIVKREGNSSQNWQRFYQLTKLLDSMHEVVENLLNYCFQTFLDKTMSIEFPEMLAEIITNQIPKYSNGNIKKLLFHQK
Active and inactive are the calls of the source.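 How the source made its calls: active means compounds whose dose series gives a full or clear partial fitted curve of increased nuclear translocation; inconclusive means weak partial curve or effect only at the top dose; inactive means no dose-dependent translocation response.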
Please reply with one of these outcomes: active, inactive

Solved cases (6 shown):
[in] For C[C@@](N)(C(=O)O)c1cccc(CC(=O)O)c1 , what call appears in the results of this test?
[out] inactive

[in] # outcome recorded in this test, key = CC1=CC(=O)C2=C(C)CC[C@@H]3[C@@H](OC(=O)[C@H]3C)[C@H]12
[out] inactive

[in] # fetch the recorded call for CCC(=O)[C@@]1(C)[C@H](C)C[C@@H]2[C@@H]3CCC4=CC(=O)C=C[C@@]4(C)[C@H]3[C@H](O)C[C@]21C here
[out] active

[in] Record request — test call for C[C@H](CCC(=O)NCC(=O)O)[C@H]1CC[C@H]2[C@H]3[C@@H](C[C@@H](O)[C@]12C)[C@]1(C)CC[C@H](O)C[C@@H]1C[C@@H]3O
[out] inactive

[in] Field: outcome | Entry: CCN(CC)CCOC(=O)[C@@H](c1ccccc1)C1CCCCC1
[out] inactive

[in] Outcome logged for C[C@@H](C(=O)O)c1ccc(N2Cc3ccccc3C2=O)cc1 in this assay:
[out] inactive

New cases:
[in] Status in this test for O=c1cc(-c2ccc(O)cc2)oc2c([C@H]3O[C@@H](CO)[C@@H](O)[C@@H](O)[C@@H]3O)c(O)cc(O)c12 ?
[out] inactive
